System: HCT116 cells
measurement-protocol: MTT assay
Format: cell-based
test-context: Homo sapiens, HCT-116, 72 h, Table 5F; HCT116 cells, 72 hours
pIC50: −log10 of the molar value.
measured-parameter: pIC50

> print(dat)
                                   molecule  recorded.measurement
1  Nc1ccccc1NC(=O)c1ccc(CNc2nc(Cl)cc(Cl)n2)cc1                  6.00
2  Nc1nc(NCc2ccc(C(=O)Nc3ccccc3N)cc2)c2nc[nH]c2n1                  5.00
3  Nc1ccccc1NC(=O)c1ccc(Cc2noc(-c3ccncc3)n2)cc1                  6.00
4  Nc1ccccc1NC(=O)c1ccc(-c2noc(CN3CCCCC3)n2)cc1                  5.30
5  COc1cc(C2C=CC(c3ccc(C(=O)Nc4ccccc4N)cc3)O2)cc(OC)c1OC (stereo not shown)                  5.30

(I) COc1cc(NCc2ccc(C(=O)Nc3ccccc3N)cc2)c(C(=O)O)cc1OC
(II) COc1ccc2nc(NCc3ccc(C(=O)Nc4ccccc4N)cc3)sc2c1
Kindly identify which of I and II has the larger recorded pIC50 value. Answer format: the label of the selected item.
II

(A) COc1ccc2nc(SCc3ccc(C(=O)Nc4ccccc4N)cc3)[nH]c2c1
(B) CN(C)c1nc2cc(NCc3ccc(C(=O)Nc4ccccc4N)cc3)ccc2s1
(C) COc1ccc(NCc2ccc(C(=O)Nc3ccccc3N)cc2)cc1OC [Cpd 424b]
Parameters: sort_field (pIC50), sort_dir (desc). Rank the items, then write their labels in that order.
A, B, C

----------
Test system: HCT116 cells
measurement-protocol: MTT assay
Assay type: cell-based
test-context: Homo sapiens, HCT-116, 72 h, Table 5F; HCT116 cells, 72 hours
pIC50: −log10 of the molar value.
measured-parameter: pIC50

> print(dat)
                              line.notation  measured.parameter  recorded.measurement
1  COc1cc(Cl)cc(NCc2ccc(C(=O)Nc3ccccc3N)cc2)n1               pIC50                  6.00
2  Nc1ccccc1NC(=O)c1ccc(Cc2nc(CN3CCOCC3)cs2)cc1               pIC50                  6.00
3     COc1ccccc1NCc1ccc(C(=O)Nc2ccccc2N)cc1               pIC50                  6.05

----------
target-of-assay: cloned recombinant human HDAC-1 (Homo sapiens)
Construct: made in house; host or cells: Baculovirus insect cell expression system
measurement-protocol: Human HDAC-1 enzyme inhibition, Assay 1 ([3H]-acetylated histone substrate, scintillation counting)
Assay type: biochemical
test-context: Table 5F; read-out: Human HDAC-1 IC50
pIC50: −log10 of the molar value.
measured-parameter: pIC50

Please review the entries below; each comes with its answer.
> print(dat)
                              line.notation  recorded.measurement
1  Nc1ccccc1NC(=O)c1ccc(CNc2nc(Cl)cc(Cl)n2)cc1                  5.70
2  Nc1ccccc1NC(=O)c1ccc(CNCCc2c[nH]c3ccccc23)cc1                  5.30
3  Nc1ccccc1NC(=O)c1ccc(Cn2cnc3ccc(Br)cc3c2=O)cc1                  5.52
4  COc1ccc2[nH]c(SCc3ccc(C(=O)Nc4cscc4N)cc3)nc2c1                  5.70
5  CN1C(=O)C2(OCCO2)c2cc(NCc3ccc(C(=O)Nc4ccccc4N)cc3)ccc21                  5.40
6  COc1ccc(N(Cc2ccc(C(=O)Nc3ccccc3N)cc2)C(=O)Nc2ccccc2)cc1OC                  5.40

(P) Cc1cc(C)nc(OCc2ccc(C(=O)Nc3ccccc3N)cc2)n1
(Q) Nc1ccccc1NC(=O)c1ccc(C(=O)Nc2ccccc2N)nc1
Kindly identify which of P and Q has the larger recorded pIC50 value. Answer format: the label of the selected item.
P

----------
target-of-assay: cloned recombinant human HDAC-1 (Homo sapiens, UniProt Q13547)
Construct: made in house; host or cells: Baculovirus insect cell expression system
Sequence (Q13547 whole entry): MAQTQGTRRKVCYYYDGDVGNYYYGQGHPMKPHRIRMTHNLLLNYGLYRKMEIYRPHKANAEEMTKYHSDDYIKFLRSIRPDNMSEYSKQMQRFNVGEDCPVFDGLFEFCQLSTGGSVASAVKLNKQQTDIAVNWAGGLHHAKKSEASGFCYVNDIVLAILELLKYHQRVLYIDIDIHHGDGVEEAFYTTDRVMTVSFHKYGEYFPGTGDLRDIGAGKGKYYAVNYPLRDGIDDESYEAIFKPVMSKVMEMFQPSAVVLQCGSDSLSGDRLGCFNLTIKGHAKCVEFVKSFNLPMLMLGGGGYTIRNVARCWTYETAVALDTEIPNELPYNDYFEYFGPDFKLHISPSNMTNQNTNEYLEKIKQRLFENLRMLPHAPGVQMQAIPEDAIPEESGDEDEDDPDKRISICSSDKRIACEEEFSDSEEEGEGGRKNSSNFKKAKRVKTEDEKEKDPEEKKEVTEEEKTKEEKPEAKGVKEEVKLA
measurement-protocol: Human HDAC-1 enzyme inhibition, Assay 1 ([3H]-acetylated histone substrate, scintillation counting)
Type: biochemical
test-context: Table 5F; read-out: Human HDAC-1 IC50
pIC50: −log10 of the molar value.
measured-parameter: pIC50

Please review the entries below; each comes with its answer.
> print(dat)
                              line.notation  measured.parameter  recorded.measurement
1  COc1ccc(N(Cc2ccc(C(=O)Nc3ccccc3N)cc2)C(=O)Nc2ccc(SC)cc2)cc1OC               pIC50                  5.70
2  Nc1ccccc1NC(=O)c1ccc(Cn2c(=O)c3ccccc3n(CCN3CCOCC3)c2=O)cc1               pIC50                  5.40
3  COc1cc(NCc2ccc(C(=O)Nc3ccccc3N)cc2)nc(OC)n1               pIC50                  5.40

(a) Nc1ccccc1NC(=O)c1ccc(CNc2ccc(SC(F)(F)F)cc2)cc1
(b) Nc1ccccc1NC(=O)c1ccc(CNc2ccc(N3CCOCC3)cc2)cc1
Kindly identify which of a and b has the larger recorded pIC50 value. Answer format: the label of the selected item.
a
(a: 5.52, b: 4.85)

----------
Test system: HCT116 cells
measurement-protocol: MTT assay
Type: cell-based
test-context: Homo sapiens, HCT-116, 72 h, Table 5F; HCT116 cells, 72 hours
measured-parameter: IC50 (nM)

> print(dat)
                                   compound  target.of.assay  units.of.measure  recorded.measurement
1  COc1ccc(NCc2ccc(-c3ccc(C(=O)Nc4ccccc4N)cc3)cc2)cc1     HCT116 cells                nM                  1000

(I) Nc1ccccc1NC(=O)c1ccc(CC2Oc3ccccc3NC2=O)cc1 (stereo not drawn)
(II) COc1cccc(NCc2ccc(C(=O)Nc3ccccc3N)cc2)c1
Kindly identify which of I and II has the larger recorded IC50 value. Answer format: the label of the selected item.
I

----------
target-of-assay: cloned recombinant human HDAC-1 (Homo sapiens)
Construct: made in house; host or cells: Baculovirus insect cell expression system
measurement-protocol: Human HDAC-1 enzyme inhibition, Assay 1 ([3H]-acetylated histone substrate, scintillation counting)
Assay type: biochemical
test-context: Table 5d; read-out: HDAC-1 IC50
measured-parameter: IC50 (µM)

> print(dat)
                              line.notation                           target.of.assay  measured.parameter  recorded.measurement
1  Nc1ccccc1NC(=O)/C=C/c1ccc(CNc2cccc(Br)c2)cc1  cloned recombinant human HDAC-1 (Homo sapiens)                IC50                     3
2  Nc1ccccc1NC(=O)/C=C/c1ccc(CNc2ccc(-c3ccccc3)cc2)cc1  cloned recombinant human HDAC-1 (Homo sapiens)                IC50                     4
3  Nc1ccccc1NC(=O)/C=C/c1ccc(CNc2cccc(S(N)(=O)=O)c2)cc1  cloned recombinant human HDAC-1 (Homo sapiens)                IC50                     4
4  CC(=O)c1cc2c(cc1NCc1ccc(/C=C/C(=O)Nc3ccccc3N)cc1)OCO2  cloned recombinant human HDAC-1 (Homo sapiens)                IC50                     4

----------
target-of-assay: cloned recombinant human HDAC-1 (Homo sapiens)
Construct: made in house; host or cells: Baculovirus insect cell expression system
measurement-protocol: Human HDAC-1 enzyme inhibition, Assay 1 ([3H]-acetylated histone substrate, scintillation counting)
Assay type: biochemical
test-context: Table 5b; read-out: Human HDAC-1 IC50
measured-parameter: IC50 (µM)

> print(dat)
                              line.notation  measured.parameter  units.of.measure  recorded.measurement
1  Nc1nc(Nc2ccc(C(=O)Nc3ccccc3N)cc2)nc(NC2Cc3ccccc3C2)n1                IC50                µM                     4

(A) COc1nc(NCc2ccc(C(=O)Nc3ccccc3N)cc2)nc(NC2Cc3ccccc3C2)n1
(B) Cc1nc(NCc2ccc(C(=O)Nc3ccccc3N)cc2)nc(NC2Cc3ccccc3C2)n1
(C) CN(Cc1ccc(C(=O)Nc2ccccc2N)cc1)c1nc(N)nc(NC2Cc3ccccc3C2)n1
Parameters: sort_field (IC50), sort_dir (desc). Rank the items, then write their labels in that order.
A, C, B

----------
target-of-assay: cloned recombinant human HDAC-1 (Homo sapiens)
Construct: made in house; host or cells: Baculovirus insect cell expression system
measurement-protocol: Human HDAC-1 enzyme inhibition, Assay 1 ([3H]-acetylated histone substrate, scintillation counting)
Type: biochemical
test-context: Table 5c; read-out: Human HDAC-1 IC50
pIC50: −log10 of the molar value.
measured-parameter: pIC50

> print(dat)
                                   compound                           target.of.assay  measured.parameter  recorded.measurement
1  COc1ccc(C(=O)Nc2ccc(/C=C/C(=O)Nc3ccccc3N)cc2)cc1  cloned recombinant human HDAC-1 (Homo sapiens)               pIC50                  4.80
2  COc1ccc(NCc2ccc(/C=C/C(=O)Nc3ccccc3N)cc2)cn1  cloned recombinant human HDAC-1 (Homo sapiens)               pIC50                  5.30
3  COc1cc(CN(C)Cc2ccc(/C=C/C(=O)Nc3ccccc3N)cc2)cc(OC)c1OC  cloned recombinant human HDAC-1 (Homo sapiens)               pIC50                  4.82
4  Nc1ccccc1NC(=O)/C=C/c1ccc(CNC(=O)OCc2cccnc2)cc1  cloned recombinant human HDAC-1 (Homo sapiens)               pIC50                  5.00
5  COc1ccc(CCNc2ccc(/C=C/C(=O)Nc3ccccc3N)cn2)cc1  cloned recombinant human HDAC-1 (Homo sapiens)               pIC50                  5.52

(P) Nc1ccccc1NC(=O)/C=C/c1ccc(NCc2cc(F)cc(F)c2)nc1
(Q) Nc1ccccc1NC(=O)/C=C/c1ccc(CCNC(=O)OCc2cccnc2)cc1
(R) COc1ccc(CNc2ccc(/C=C(\C)C(=O)Nc3ccccc3N)cn2)cc1 [Cpd 61b]
(S) Nc1ccccc1NC(=O)/C=C/c1ccc(NC/C=C/c2ccccc2)nc1
Parameters: sort_field (pIC50), sort_dir (desc). Rank the items, then write their labels in that order.
S, P, R, Q
(S: 5.70, P: 5.40, R: 5.15, Q: 4.80)

(I) COc1ccc(CNc2ncc(/C=C/C(=O)Nc3ccccc3N)cn2)cc1
(II) Nc1ccccc1NC(=O)/C=C/c1ccc(NC(=O)OCc2cccnc2)cc1 [Cpd 55b]
(III) NCc1cccc(CNc2ccc(/C=C/C(=O)Nc3ccccc3N)cn2)c1
Ordering: ascending pIC50. Rank the items, then write their labels in that order.
III, I, II
(III: 4.70, I: 4.96, II: 5.52)
